system: A2780 ovarian cells; assay: A2780 Ovarian Cell Proliferation Assay in Lipid Reduced Medium, without Palmitate; type: cell-based; conditions: Homo sapiens, A2780; lipid reduced medium, without palmitate, 96 h, MTT; read-out: Proliferation A2780 w/o Palmitate pIC50 (converted)
With a cut-off of 200 nM, any IC50 strictly below it is called t; any IC50 meeting it or above is called f.

Query: I wonder whether Cc1ccc(C(=O)N2CCC(c3ccc(-c4cnn(C)c4)cc3)CC2)cc1NC(=O)C1CCCC1 [Compound 88] has IC50 below 200 nM. Can you tell?
Response: f

Query: I wonder whether Cc1ccc(C(=O)N2CC(c3ccc(-c4ccc5cnccc5c4)cc3)C2)cc1NC(=O)c1ccc(NC(C)C)nc1 [Compound 29] has IC50 below 200 nM. Can you tell?
Response: t

Query: I wonder whether Cc1ccc(C(=O)N2CCC(c3ccc(-c4cnn(C)c4)cc3)CC2)cc1NC(=O)[C@H]1CCCN1 [Compound 172] has IC50 below 200 nM. Can you tell?
Response: f

Query: I wonder whether COc1cccc(C(=O)Nc2cc(C(=O)N3CCC(c4ccc(-c5cnn(C)c5)cc4)CC3)ccc2C)c1 [Compound 94] has IC50 below 200 nM. Can you tell?
Response: t

Query: I wonder whether Cc1ccc(C(=O)N2CCC(c3ccc(-c4cnn(C)c4)cc3)CC2)cc1NC(=O)c1ccccc1C(F)(F)F [Compound 132] has IC50 below 200 nM. Can you tell?
Response: f

Query: I wonder whether COc1ccc(C(=O)Nc2cc(C(=O)N3CC(c4ccc(-c5cnn(C)c5)cc4)C3)ccc2C)cc1 [Compound #83] has IC50 below 200 nM. Can you tell?
Response: t

====

target: hFASN enzyme (full length) (Homo sapiens, UniProt P49327); construct: 10 μL hFASN enzyme (full length, 300 ng, purified in house); made in house; experiment: Fatty Acid Synthase (FASN) Inhibition Scintillation Proximity Assay; assay type: biochemical; conditions: read-out: FASN % Effect @1E−05M
READOUT TYPE: inhibition at 10 µM (%)
Just the number in %, nothing appended.

Known results for compounds:
Cc1ccc(F)c(C(=O)Nc2cc(C(=O)N3CCC(c4ccc(-c5cnn(C)c5)cc4)CC3)ccc2C)c1 [Compound 127]
98
Cc1ccc(C(=O)N2CCC(c3ccc(-c4cnn(C)c4)cc3)CC2)cc1NC(=O)c1ccc(Cl)cc1Cl [Compound 122]
101
CCCCCCN1CCC(C(=O)Nc2cc(C(=O)N3CCC(c4ccc(-c5cnn(C)c5)cc4)CC3)ccc2C)CC1 [Compound 216]
113
Cc1ccc(C(=O)N2CCC(c3ccc(-c4cnn(C)c4)cc3)CC2)cc1NC(=O)c1ccc(NC2CCC2)nc1 [Compound 134]
111
Cc1ccc(C(=O)N2CC(c3ccc(-c4cnn(C)c4)cc3)C2)cc1NC(=O)c1ccc(NC(C)C)nc1 [Compound 24]
111

# ---- query compound ----
Query: Value lookup for inhibition at 10 µM; key = CC(C)Nc1ccc(C(=O)Nc2cc(C(=O)N3CCC(c4ccc(-c5cnn(C)c5)cc4)CC3)ccc2OCc2ccccc2)cn1 [Compound 271]
Response: 101

====

Each entry below carries its recorded IC50.
molecular target: FASN Keto-reductase Domain (Homo sapiens, UniProt P49327); construct: 10 μL hFASN enzyme (full length, 300 ng, purified in house) and 360 μM NADPH; made in house; assay: Fatty Acid Synthase Keto-Reductase Domain (FASN KR) Inhibition; format: biochemical; conditions: mean where tested more than once; read-out: FASN K-R Domain pIC50 (converted)
Sequence (P49327 whole entry, the tested form may be a part): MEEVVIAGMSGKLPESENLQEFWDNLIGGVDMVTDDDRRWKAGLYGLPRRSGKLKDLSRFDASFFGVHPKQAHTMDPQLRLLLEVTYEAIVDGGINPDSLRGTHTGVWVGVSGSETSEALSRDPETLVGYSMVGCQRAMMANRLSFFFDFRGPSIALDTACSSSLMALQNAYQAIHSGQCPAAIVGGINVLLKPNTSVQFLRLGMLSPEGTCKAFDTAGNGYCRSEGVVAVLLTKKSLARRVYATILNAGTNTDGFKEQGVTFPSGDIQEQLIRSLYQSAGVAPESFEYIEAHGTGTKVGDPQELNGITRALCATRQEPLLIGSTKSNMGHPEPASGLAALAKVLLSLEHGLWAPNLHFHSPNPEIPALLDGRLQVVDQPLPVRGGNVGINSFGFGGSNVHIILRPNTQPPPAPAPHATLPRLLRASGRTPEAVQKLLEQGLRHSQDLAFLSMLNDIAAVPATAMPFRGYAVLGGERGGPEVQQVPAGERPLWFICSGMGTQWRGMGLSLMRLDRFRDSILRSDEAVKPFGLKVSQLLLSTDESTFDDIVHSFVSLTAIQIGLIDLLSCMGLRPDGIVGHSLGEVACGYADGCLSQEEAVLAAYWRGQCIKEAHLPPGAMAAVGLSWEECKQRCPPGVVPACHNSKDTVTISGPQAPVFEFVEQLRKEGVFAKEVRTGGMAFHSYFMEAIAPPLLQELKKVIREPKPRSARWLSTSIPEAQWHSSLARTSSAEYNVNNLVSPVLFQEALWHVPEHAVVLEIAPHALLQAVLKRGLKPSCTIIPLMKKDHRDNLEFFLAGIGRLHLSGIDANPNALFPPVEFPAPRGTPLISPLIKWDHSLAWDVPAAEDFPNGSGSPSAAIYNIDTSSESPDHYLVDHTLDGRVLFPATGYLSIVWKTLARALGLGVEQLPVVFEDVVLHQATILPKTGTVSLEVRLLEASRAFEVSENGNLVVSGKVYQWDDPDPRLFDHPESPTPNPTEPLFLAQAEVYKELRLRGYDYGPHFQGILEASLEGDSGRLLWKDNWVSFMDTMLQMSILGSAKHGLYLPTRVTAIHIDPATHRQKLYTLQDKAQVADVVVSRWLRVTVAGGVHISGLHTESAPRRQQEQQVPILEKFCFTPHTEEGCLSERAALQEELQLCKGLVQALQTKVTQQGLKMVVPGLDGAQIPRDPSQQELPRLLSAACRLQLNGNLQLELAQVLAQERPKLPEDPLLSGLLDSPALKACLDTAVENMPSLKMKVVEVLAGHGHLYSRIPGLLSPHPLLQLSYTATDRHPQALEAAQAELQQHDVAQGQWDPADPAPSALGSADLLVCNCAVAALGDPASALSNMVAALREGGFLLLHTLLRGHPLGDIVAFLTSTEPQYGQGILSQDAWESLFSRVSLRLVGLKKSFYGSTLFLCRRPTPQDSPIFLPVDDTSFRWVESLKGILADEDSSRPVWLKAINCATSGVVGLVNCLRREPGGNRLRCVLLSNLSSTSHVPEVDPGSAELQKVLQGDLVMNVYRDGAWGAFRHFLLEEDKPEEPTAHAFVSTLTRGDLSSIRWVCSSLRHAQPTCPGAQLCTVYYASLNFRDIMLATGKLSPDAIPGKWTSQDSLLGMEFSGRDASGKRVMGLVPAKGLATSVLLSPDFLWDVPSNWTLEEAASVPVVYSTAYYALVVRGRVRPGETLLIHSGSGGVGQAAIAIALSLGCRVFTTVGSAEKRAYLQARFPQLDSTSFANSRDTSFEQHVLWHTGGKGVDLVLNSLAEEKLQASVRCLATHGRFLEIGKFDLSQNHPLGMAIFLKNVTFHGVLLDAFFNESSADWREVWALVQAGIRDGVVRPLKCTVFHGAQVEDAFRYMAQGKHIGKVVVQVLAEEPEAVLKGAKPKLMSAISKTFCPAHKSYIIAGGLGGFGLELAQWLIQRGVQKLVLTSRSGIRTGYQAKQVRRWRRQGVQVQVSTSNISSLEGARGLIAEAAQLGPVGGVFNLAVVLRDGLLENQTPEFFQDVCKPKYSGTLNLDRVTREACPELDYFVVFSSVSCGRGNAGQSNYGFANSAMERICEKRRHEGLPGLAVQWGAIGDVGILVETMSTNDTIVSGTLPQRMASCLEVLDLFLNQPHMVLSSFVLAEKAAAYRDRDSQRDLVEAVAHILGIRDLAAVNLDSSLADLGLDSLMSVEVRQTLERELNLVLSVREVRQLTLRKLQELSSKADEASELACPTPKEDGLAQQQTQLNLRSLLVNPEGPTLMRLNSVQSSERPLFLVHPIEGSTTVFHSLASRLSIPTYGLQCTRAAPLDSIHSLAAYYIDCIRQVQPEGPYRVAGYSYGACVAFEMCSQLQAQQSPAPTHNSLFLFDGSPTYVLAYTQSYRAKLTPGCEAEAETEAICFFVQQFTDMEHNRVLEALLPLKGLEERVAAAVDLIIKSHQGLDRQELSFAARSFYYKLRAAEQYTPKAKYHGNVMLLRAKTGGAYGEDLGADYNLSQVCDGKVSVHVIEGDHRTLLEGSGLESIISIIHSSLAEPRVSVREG
Just the number in nM, nothing appended.

Known results for compounds:
Cn1cc(-c2ccc(C3CCN(C(=O)c4ccc(OCc5ccccc5)c(NC(=O)c5ccc(Cl)nc5)c4)CC3)cc2)cn1
1050
Cc1ccc(C(=O)N2CC(c3ccc(-c4ccnn4C)cc3)C2)cc1NC(=O)c1ccc(N(C)C2CCN(C)CC2)nc1
69.2
Cc1ccc(C(=O)N2CC[C@H](c3ccc(-n4ccnc4)cc3)[C@H](C)C2)cc1NC(=O)c1ccc(Cl)nc1 (racemic)
562

Query: Return IC50 measured with FASN Keto-reductase Domain (Homo sapiens, UniProt P49327) given this compound: CC(C)Nc1ccc(C(=O)Nc2cc(C(=O)N3CC(c4ccc(-c5ccc6cnccc6c5)cc4)C3)ccc2Cl)cn1
Response: 55

Query: Return IC50 measured with FASN Keto-reductase Domain (Homo sapiens, UniProt P49327) given this compound: Cc1ccc(C(=O)N2CCC(c3ccc(-c4cnn(C)c4)cc3)CC2)cc1NC(=O)C1CN(C(=O)C2CC2)C1
Response: 200

Query: Return IC50 measured with FASN Keto-reductase Domain (Homo sapiens, UniProt P49327) given this compound: CC(C)Nc1ccc(C(=O)Nc2cc(C(=O)N3CCC(c4ccc(-c5cnn(C)c5)cc4)CC3)ccc2Cl)cn1
Response: 41.7

Query: Return IC50 measured with FASN Keto-reductase Domain (Homo sapiens, UniProt P49327) given this compound: Cc1ccc(C(=O)N2CCC(c3ccc(-c4cnn(C)c4)cc3)CC2)cc1NC(=O)C1CN(C2CCCCC2)C1
Response: 191

Query: Return IC50 measured with FASN Keto-reductase Domain (Homo sapiens, UniProt P49327) given this compound: CCc1ccc(C(=O)N2CCC(c3ccc(-c4cnn(C)c4)cc3)CC2)cc1NC(=O)c1ccc(Cl)nc1
Response: 72.4

Query: Return IC50 measured with FASN Keto-reductase Domain (Homo sapiens, UniProt P49327) given this compound: Cc1ccc(C(=O)Nc2cc(C(=O)N3CCC(c4ccc(-c5cnn(C)c5)cc4)CC3)ccc2C)s1
Response: 120

====

Each entry below carries its recorded inhibition at 10 µM.
target: hFASN enzyme (full length) (Homo sapiens); construct: 10 μL hFASN enzyme (full length, 300 ng, purified in house); made in house; assay: Fatty Acid Synthase (FASN) Inhibition Scintillation Proximity Assay; format: biochemical; conditions: read-out: FASN % Effect @1E−05M
Just the number in %, nothing appended.

Cc1ccc(C(=O)N2CCC(c3ncc(-c4cnn(C)c4)cn3)CC2)cc1NC(=O)c1ccc(Cl)nc1
95
Cc1ccc(C(=O)N2CCC(c3ccc(-c4cnn(C)c4)cc3)CC2)cc1NC(=O)c1ccc(N2CCN[C@@H](CO)C2)nc1
105
COCCNc1ccc(C(=O)N2CCC(c3ccc(-c4cnn(C)c4)cc3)CC2)cc1NC(=O)C1CC1
91
Cc1ccc(C(=O)N2CCC(c3ccc(-c4cnn(C)c4)cc3)CC2)cc1NC(=O)C1CCN(CC(C)C)C1 (stereo not shown)
104
Cc1ccc(C(=O)N2CC(c3ccc(-c4cccc5ncccc45)cc3)C2)cc1NC(=O)c1ccc(NC(C)C)nc1
111

Query: Value lookup for inhibition at 10 µM; key = Cc1ccc(C(=O)N2CCC(c3ccc(-c4cnn(C)c4)cc3)CC2)cc1NC(=O)[C@H]1CCCN1
Response: 91

Query: Value lookup for inhibition at 10 µM; key = CC(C)Nc1ccc(C(=O)Nc2cc(C(=O)N3CC(c4ccc(-c5ccc6cnccc6c5)cc4)C3)ccc2Cl)cn1
Response: 92

====

target: FASN Keto-reductase Domain (Homo sapiens, UniProt P49327); construct: 10 μL hFASN enzyme (full length, 300 ng, purified in house) and 360 μM NADPH; made in house; assay: Fatty Acid Synthase Keto-Reductase Domain (FASN KR) Inhibition; assay type: biochemical; conditions: mean where tested more than once; read-out: FASN K-R Domain pIC50 (converted)
With a cut-off of 90 nM, any IC50 strictly below it is called met; any IC50 meeting it or above is called not met.

Solved cases below.
Cc1ccc(C(=O)N2CC(c3ccc(-c4ccnn4C)cc3)C2)cc1NC(=O)c1ccc(N2CCN(C)CC2)nc1
not met
COc1ccc(C(=O)Nc2cc(C(=O)N3CCC(c4ccc(-c5cnn(C)c5)cc4)CC3)ccc2C)cn1
met
COc1ccc(C(=O)Nc2cc(C(=O)N3CCC(c4ccc(-c5cnn(C)c5)cc4)CC3)ccc2C)cc1O
met
CC(C)Nc1ccc(C(=O)Nc2cc(C(=O)N3CC[C@H](c4ccc(-c5ccnn5C)cc4)[C@@H](O)C3)ccc2Cl)cn1 (racemic)
not met
Cc1ccc(C(=O)N2CCC(c3ccc(-c4cnn(C)c4)cc3)CC2)cc1NC(=O)C1CCOCC1
met
CC(C)Nc1ccc(C(=O)Nc2cc(C(=O)N3CC(c4ccc(-c5cnn(C)c5)cc4)C3)ccc2Cl)cn1
met
Cc1ccc(C(=O)N2CCC(c3ccc(-c4ccccc4)cc3)CC2)cc1NC(=O)c1ccc(NC(C)C)nc1
not met
Cc1ccc(C(=O)N2CCC(c3ccc4c(c3)NC(=O)CC4)CC2)cc1NC(=O)c1ccc(NC(C)C)nc1
not met
CCc1ccc(C(=O)N2CCC(c3ccc(-c4cnn(C)c4)cc3)CC2)cc1NC(=O)c1ccc(NC(C)C)nc1
met
Cc1ccc(C(=O)N2CCC(c3ccc(-c4cnn(C)c4)cc3)CC2)cc1NC(=O)c1sccc1Cl
not met

Query: I wonder whether Cc1ccc(C(=O)N2CC(c3ccc(-c4ccnn4C)cc3)C2)cc1NC(=O)c1cncc(Br)c1 has IC50 below 90 nM. Can you tell?
Response: not met

Query: I wonder whether Cc1ccc(C(=O)N2CCC(c3ccc(-c4cn(C)nc4C)cc3)CC2)cc1NC(=O)c1ccc(NC(C)C)nc1 has IC50 below 90 nM. Can you tell?
Response: met

Query: I wonder whether COc1ccc(C(=O)N2CC(c3ccc(-c4cnn(C)c4)cc3)C2)cc1NC(=O)c1ccc(NC(C)C)nc1 has IC50 below 90 nM. Can you tell?
Response: not met

Values compiled from patent US9562035B2.
